- TEST_SYSTEM: C6orf48
- TEST_DETAILS: pooled miR-30 sensor sort-seq; sequence = guide strand; further: reference of the scale not given here
- CONDITIONS_USED: shRNA
Catalogue of sequences with associated sensor-assay potency score (higher = more potent)
Output: the number by itself.

INSERT INTO assay_data (sequence, readout_number) VALUES
  ('TCACACAGGATAATACAGGAAA', -0.815),
  ('TGACAGCTGCTCACACAGGATA', -1.51),
  ('TATTGTGTCAGCAAATTCCATA', -0.54),
  ('AAGTTCTTAGGATATGCCCAGC', -0.846);

Shift focus to the following entry.
Input line: Item under review: TAAGTTCTTAGGATATGCCCAG . Reported sensor-assay potency score (higher = more potent)?
Output line: -0.415

---

- TEST_SYSTEM: C3orf22
- TEST_DETAILS: pooled miR-30 sensor sort-seq; sequence = guide strand
- CONDITIONS_USED: shRNA
QUANTITY: sensor-assay potency score (higher = more potent)
Output: the number by itself.

INSERT INTO assay_data (sequence, test_system, readout_number) VALUES
  ('TCCACTTCTTACTCTGGTGAGA', 'C3orf22', -1.65),
  ('TGTACGGAAACTTCTTGGCAAA', 'C3orf22', -1.61),
  ('TTACTCTGGTGAGACTTCTTGC', 'C3orf22', -0.146),
  ('TTCGAGTCGTTTGTGACCTCCC', 'C3orf22', 0.262);

Input line: Item under review: TCCTCCACTTCTTACTCTGGTG . Reported sensor-assay potency score (higher = more potent)?
Output line: -1.52

Input line: Item under review: TTGGCACCAACCTCTTCTGCAG . Reported sensor-assay potency score (higher = more potent)?
Output line: -0.633

Input line: Item under review: TTCTTGGCAAAATTCTCCTGGG . Reported sensor-assay potency score (higher = more potent)?
Output line: -0.771

---

- TEST_SYSTEM: HCST
- TEST_DETAILS: pooled miR-30 sensor sort-seq; sequence = guide strand
- CONDITIONS_USED: shRNA
Catalogue of sequences with associated sensor-assay potency score (higher = more potent)
Output: the number by itself.

Worked cases, answers included:
INSERT INTO measurements (sequence, readout_number) VALUES
  ('TAGACTTTGCCATCTTCTTGGG', -0.36),
  ('AACAAGAGCCTGAAGTGCCAGG', -0.933),
  ('TCTCTCTCCTGGAGTCGTCTGA', -1.08);

Input line: GET /values?readout=sensor-assay potency score (higher = more potent)&system=HCST&item= ATGAGCAGCGATGCCACCGCAT
Output line: -1.5

Input line: GET /values?readout=sensor-assay potency score (higher = more potent)&system=HCST&item= TGTTGATGTAGACTTTGCCATC
Output line: -1.89

Input line: GET /values?readout=sensor-assay potency score (higher = more potent)&system=HCST&item= AGACTTTGCCATCTTCTTGGGC
Output line: -0.803

Input line: GET /values?readout=sensor-assay potency score (higher = more potent)&system=HCST&item= TTGATGTAGACTTTGCCATCTT
Output line: -0.308

Input line: GET /values?readout=sensor-assay potency score (higher = more potent)&system=HCST&item= TTGCCATCTTCTTGGGCGGGGC
Output line: -1.23
